Origin of the recorded values: patent US8952128B2

# test_system: hSSTR2 (Homo sapiens (Human), UniProt P30874)
# Sequence (P30874 whole entry): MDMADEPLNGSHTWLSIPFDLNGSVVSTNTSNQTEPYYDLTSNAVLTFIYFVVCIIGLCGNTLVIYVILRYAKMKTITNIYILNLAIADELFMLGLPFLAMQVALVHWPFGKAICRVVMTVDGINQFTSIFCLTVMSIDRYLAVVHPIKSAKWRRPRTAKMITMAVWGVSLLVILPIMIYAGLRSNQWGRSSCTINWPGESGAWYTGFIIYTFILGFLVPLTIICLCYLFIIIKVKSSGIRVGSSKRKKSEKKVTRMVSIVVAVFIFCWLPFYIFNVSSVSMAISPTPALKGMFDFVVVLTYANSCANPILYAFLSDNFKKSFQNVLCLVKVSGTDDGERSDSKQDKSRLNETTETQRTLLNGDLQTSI
# test: Intracellular calcium mobilization assay (FLIPR Calcium 4), hSSTR2;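 note: agonist activity read as intracellular calcium rise in cells expressing human SSTR2, loaded with a calcium-sensitive dye for 60 min at 37 °C, measured by FLIPR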
# Assay type: cell-based
# experimental_parameters: read-out: hSSTR2 % Emax ± SEM
Bridge positions count the residues as written; N and C are the ends. Square brackets hold non-standard residues; d marks the D form. Peptide text beside a SMILES is read from it. * marks the point of attachment. X2 = CN1C[C@H](CSCC(=O)*)C[C@@H]2c3cccc4[nH]cc(c34)C[C@H]21; dDab = NCC[C@@H](N)C(=O)O
attribute_measured: Emax (%)
Express it in %; write the number only.

The cases that follow already have their Emax on record.
compound="C[C@@H](O)[C@@H]1NC(=O)[C@H](CCCCN)NC(=O)[C@@H](Cc2c[nH]c3ccccc23)NC(=O)[C@H](Cc2ccccc2)NC(=O)[C@H](Cc2ccccc2)NC(=O)[C@H](CCCNC(=N)N)NC(=O)[C@H](NC(=O)[C@H](Cc2ccc(O)cc2)NC(=O)CSC[C@@H]2C[C@@H]3c4cccc5[nH]cc(c45)C[C@H]3N(C)C2)CCNC(=O)[C@H](Cc2ccccc2)NC1=O [Reference Compound B, reference compound] (X2-Y[dDab]RFF[dW]KTF; lactam 2-C)" observed_value=66.7
compound="C[C@@H](O)[C@@H]1NC(=O)[C@H](CCCCN)NC(=O)[C@@H](Cc2c[nH]c3ccccc23)NC(=O)[C@H](Cc2ccccc2)NC(=O)[C@H](Cc2ccccc2)NC(=O)[C@H](CCCNC(=N)N)NC(=O)[C@H](NCC[S+]([O-])C[C@@H]2C[C@@H]3c4cccc5[nH]cc(c45)C[C@H]3N(C)C2)CCCCNC(=O)[C@H](Cc2ccc(F)cc2)NC1=O (stereo partly shown) [Compound 14]" observed_value=102

q: Request the reported Emax associated with C[C@@H](O)[C@@H]1NC(=O)[C@H](CCCCN)NC(=O)[C@@H](Cc2c[nH]c3ccccc23)NC(=O)[C@H](Cc2ccncc2)NC(=O)[C@H](Cc2ccccc2)NC(=O)[C@H](CCCNC(=N)N)NC(=O)[C@H](NCCSC[C@@H]2C[C@@H]3c4cccc5[nH]cc(c45)C[C@H]3N(C)C2)CCCCNC(=O)[C@H](Cc2ccccc2)NC1=O [Compound 23]
a: 95.4

q: Need Emax, item C[C@@H](O)[C@@H]1NC(=O)[C@H](CCCCN)NC(=O)[C@@H](Cc2c[nH]c3ccccc23)NC(=O)[C@H](Cc2ccncc2)NC(=O)[C@H](Cc2ccccc2)NC(=O)[C@H](CCCNC(=N)N)NC(=O)[C@H](NC[C@H](CCCCNC(=O)CSC[C@@H]2C[C@@H]3c4cccc5[nH]cc(c45)C[C@H]3N(C)C2)NC(=O)CSC[C@@H]2C[C@@H]3c4cccc5[nH]cc(c45)C[C@H]3N(C)C2)CCCCNC(=O)[C@H](Cc2ccc(O)cc2)NC1=O [Compound 8]
a: 98.8

q: I have this compound here, C[C@@H](O)[C@@H]1NC(=O)[C@H](CCCCN)NC(=O)[C@@H](Cc2c[nH]c3ccccc23)NC(=O)[C@H](Cc2ccccc2)NC(=O)[C@H](Cc2ccccc2)NC(=O)[C@H](CCCNC(=N)N)NC(=O)[C@H](NCCCS(=O)(=O)C[C@@H]2C[C@@H]3c4cccc5[nH]cc(c45)C[C@H]3N(C)C2)CCCCNC(=O)[C@H](Cc2ccc(F)cc2)NC1=O [Compound 48] , and I need its recorded Emax.
a: 95.5

q: Emax for C[C@@H](O)[C@@H]1NC(=O)[C@H](CCCCN)NC(=O)[C@@H](Cc2c[nH]c3ccccc23)NC(=O)[C@H](Cc2ccccc2)NC(=O)[C@H](Cc2ccccc2)NC(=O)[C@H](CCCNC(=N)N)NC(=O)[C@H](NCCSC[C@@H]2C[C@@H]3c4cccc5[nH]cc(c45)C[C@H]3N(C)C2)CCCCNC(=O)[C@H](Cc2ccc(F)c(F)c2)NC1=O [Compound 6A] ?
a: 99.5

q: Look up Emax: C[C@@H](O)[C@@H]1NC(=O)[C@H](CCCCN)NC(=O)[C@@H](Cc2c[nH]c3ccccc23)NC(=O)[C@H](Cc2ccccc2)NC(=O)[C@H](Cc2ccccc2)NC(=O)[C@H](CCCNC(=N)N)NC(=O)[C@H](NC[C@H](CCCCNC(=O)CSC[C@@H]2C[C@@H]3c4cccc5[nH]cc(c45)C[C@H]3N(C)C2)NC(=O)CSC[C@@H]2C[C@@H]3c4cccc5[nH]cc(c45)C[C@H]3N(C)C2)CCCCNC(=O)[C@H](Cc2ccc(F)cc2)NC1=O [Compound 47]
a: 96.2

q: Find the recorded Emax belonging to C[C@@H](O)[C@@H]1NC(=O)[C@H](CCCCN)NC(=O)[C@@H](Cc2c[nH]c3ccccc23)NC(=O)[C@H](Cc2ccccc2)NC(=O)[C@H](Cc2ccccc2)NC(=O)[C@H](CCCNC(=N)N)NC(=O)[C@H](NCCSC[C@@H]2C[C@@H]3c4cccc5[nH]cc(c45)C[C@H]3N(C)C2)CCCCNC(=O)[C@H](Cc2cc(F)cc(F)c2)NC1=O [Compound 6B] and report it.
a: 95.2

q: Form field: reported Emax of C[C@@H](O)[C@@H]1NC(=O)[C@H](CCCCN)NC(=O)[C@@H](Cc2c[nH]c3ccccc23)NC(=O)[C@H](Cc2ccccc2)NC(=O)[C@H](Cc2ccccc2)NC(=O)[C@H](CCCNC(=N)N)NC(=O)[C@H](NC[C@H](Cc2ccc(O)cc2)NC(=O)C[S+]([O-])C[C@@H]2C[C@@H]3c4cccc5[nH]cc(c45)C[C@H]3N(C)C2)CCCCNC(=O)[C@H](Cc2ccc(F)cc2)NC1=O (stereo partly shown) [Compound 13]
a: 100

q: Consider the compound shown here: C[C@@H](O)[C@@H]1NC(=O)[C@H](CCCCN)NC(=O)[C@@H](Cc2c[nH]c3ccccc23)NC(=O)[C@H](Cc2ccccc2)NC(=O)[C@H](Cc2ccccc2)NC(=O)[C@H](CCCNC(=N)N)NC(=O)[C@H](NCCCC[C@@H]2C[C@@H]3c4cccc5[nH]cc(c45)C[C@H]3N(C)C2)CCCCNC(=O)[C@H](Cc2ccc(F)cc2)NC1=O [Compound 2] What is its recorded Emax?
a: 100

* * *

# test_system: hDRD2 (Homo sapiens (Human))
# test: cell-based
# experimental_parameters: read-out: hDRD2 % Emax ± SEM
Bridge positions count the residues as written; N and C are the ends. Square brackets hold non-standard residues; d marks the D form. Peptide text beside a SMILES is read from it. * marks the point of attachment. X2 = CN1C[C@H](CSCC(=O)*)C[C@@H]2c3cccc4[nH]cc(c34)C[C@H]21; dDab = NCC[C@@H](N)C(=O)O
# Lookup of reported Emax keyed by entry
Express your answer in %, writing the number without its unit.

The following molecules have reported results that may help.
molecule="C[C@@H](O)[C@@H]1NC(=O)[C@H](CCCCN)NC(=O)[C@@H](Cc2c[nH]c3ccccc23)NC(=O)[C@H](Cc2ccccc2)NC(=O)[C@H](Cc2ccccc2)NC(=O)[C@H](CCCNC(=N)N)NC(=O)[C@H](NC(=O)[C@@H](Cc2ccc(O)cc2)NC(=O)CSC[C@@H]2C[C@@H]3c4cccc5[nH]cc(c45)C[C@H]3N(C)C2)CCCCNC(=O)[C@H](Cc2ccccc2)NC1=O [Compound 37] (X2-[dY][dK]RFF[dW]KTF; lactam 2-C)" attribute_measured=Emax observed_value=93.7
molecule="C[C@@H](O)[C@@H]1NC(=O)[C@H](CCCCN)NC(=O)[C@@H](Cc2c[nH]c3ccccc23)NC(=O)[C@H](Cc2ccccc2)NC(=O)[C@H](Cc2ccccc2)NC(=O)[C@H](CCCNC(=N)N)NC(=O)[C@H](NC(=O)CSC[C@@H]2C[C@@H]3c4cccc5[nH]cc(c45)C[C@H]3N(C)C2)CCNC(=O)[C@H](Cc2ccccc2)NC1=O [Reference Compound A, reference compound] (X2-[dDab]RFF[dW]KTF; lactam 1-C)" attribute_measured=Emax observed_value=59.7
molecule=C[C@@H](O)[C@@H]1NC(=O)[C@H](CCCCN)NC(=O)[C@@H](Cc2c[nH]c3ccccc23)NC(=O)[C@H](Cc2ccccc2)NC(=O)[C@H](Cc2ccccc2)NC(=O)[C@H](CCCNC(=N)N)NC(=O)[C@H](NC[C@H](Cc2ccc(O)cc2)NC(=O)CCN(C[C@@H]2C[C@@H]3c4cccc5[nH]cc(c45)C[C@H]3N(C)C2)S(C)(=O)=O)CCCCNC(=O)[C@H](Cc2ccc(F)cc2)NC1=O attribute_measured=Emax observed_value=94.5

Now for the molecule whose Emax we want.
q: So what does the record say about Emax for C[C@@H](O)[C@@H]1NC(=O)[C@H](CCCCN)NC(=O)[C@@H](Cc2c[nH]c3ccccc23)NC(=O)[C@H](Cc2ccccc2)NC(=O)[C@H](Cc2ccccc2)NC(=O)[C@H](CCCNC(=N)N)NC(=O)[C@H](NC(=O)[C@H](Cc2ccc(O)cc2)NC(=O)CSC[C@@H]2C[C@@H]3c4cccc5[nH]cc(c45)C[C@H]3N(C)C2)CCNC(=O)[C@H](Cc2ccccc2)NC1=O [Reference Compound B, reference compound] (X2-Y[dDab]RFF[dW]KTF; lactam 2-C) ?
a: 92.8
